Each recorded value in this set is attributed to the supplement of paper PMC10567573.

B1: KRT13 (parent)
chain: TSSASVTTTSNASGRRTSDVRRP

- Variants of: B1
- protocol-notes: protein stability index of a GFP-peptide fusion (GPS, HEK-293T) (PSI 1-6); higher = more stable;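 note: lentivirally expressed fusions sorted by FACS into six bins by GFP to DsRed ratio, PSI derived from sequencing read proportions per bin multiplied by bin number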
- condition-set: c terminus: native
Would you kindly list protein stability index for each of these variants?

Would you kindly share the measured protein stability index for TSSASVTTTSNASGPRTSDVRRP [R15P] ? 1.73

Next record, please: TSSASVTTTSNASGRRTSDQRRP [V20Q] 2.06

Next record, please: TSSASVTTTSNAVGRRTSDVRRP [S13V] 3.04

Next record, please: TSSASVTTTSNAAGRRTSDVRRP [S13A] 2.97

Next record, please: TSSASVTTTSNASGRRTSDVREP [R22E] 1.75

Next record, please: TSSASVTTTSRASGRRTSDVRRP [N11R] 2.36

Next record, please: TSSASVTTTSNASGRRTFDVRRP [S18F] 1.56

Next record, please: TSSASVTTTSNDSGRRTSDVRRP [A12D] 3.12

Next record, please: TSSASVATTSNASGRRTSDVRRP [T7A] 2.46

Next record, please: TSSASVTTTSEASGRRTSDVRRP [N11E] 3.41

Next record, please: TDSASVTTTSNASGRRTSDVRRP [S2D] 2.46

Next record, please: TSSASVPTTSNASGRRTSDVRRP [T7P] 1.66

Next record, please: TSSASVTTTSNASGRRTMDVRRP [S18M] 1.77

Next record, please: TSSASVTTTSFASGRRTSDVRRP [N11F] 2.92

Next record, please: TSSASVTTTSNASTRRTSDVRRP [G14T] 2.3

Next record, please: TSSASVTTTSNASGRRTSSVRRP [D19S] 2.07

Next record, please: TSSASVRTTSNASGRRTSDVRRP [T7R] 2.97

Next record, please: TSSASVTTTSNASGRRTSFVRRP [D19F] 2.83

Next record, please: TSGASVTTTSNASGRRTSDVRRP [S3G] 3.79

Next record, please: TSSASDTTTSNASGRRTSDVRRP [V6D] 2.88

Next record, please: TSSASVTTTSNASGRFTSDVRRP [R16F] 2.27

Next record, please: TSSASTTTTSNASGRRTSDVRRP [V6T] 3.08
